experimental_system: BRD4 BD2 (Homo sapiens, UniProt O60885, Y97A)
Construct: BRD4 (1-477) (Y97A) and (Y390A); made in house; host or cells: E. coli (pET15b vector)
procedure_summary: TR-FRET binding assay, BRD4 BD2 (mutant protein)
condition: 10 nM mutated bromodomain protein, Alexa Fluor647 ligand at Kd, read-out: mean pIC50 in the BRD4 BD2 assay (converted)
Where a name gives a salt, the structure may show the parent alone.
reported_property: IC50 (nM)

compound	reported_property	test_value
COCC(COC)n1c(-c2cc(C)c(=O)n(C)c2)nc2cc(CN[C@H](C(=O)O)[C@@H](C)O)ccc21 [Example 66, hydrochloride]	IC50	1260

[I] Cc1cc(-c2nc3cc(CN[C@H](C(=O)O)[C@@H](C)O)ccc3n2CC2CCOCC2)cn(C)c1=O [Example 68, hydrochloride]
[II] COCC(COC)n1c(-c2cc(C)c(=O)n(C)c2)nc2cc(CN[C@H](C(=O)OC(C)C)[C@@H](C)O)ccc21
Returns: the argument ( I or II ) having the larger IC50. Provide the label of your selected option as the answer.
I

Sourced from patent US11053212B2
